These measurements were taken from the supplement of paper PMC11208160.

assay: recombinant barcode read abundance after kanamycin selection (control-corrected) (log10(CPM+1)); higher = more efficient recombination; sequences stand for … in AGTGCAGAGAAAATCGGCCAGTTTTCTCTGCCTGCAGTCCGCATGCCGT…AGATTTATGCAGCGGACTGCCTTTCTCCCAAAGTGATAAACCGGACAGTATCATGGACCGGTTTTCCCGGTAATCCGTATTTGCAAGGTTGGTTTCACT; site = the 11-nt target;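 further: IS621 recombinase and bridge RNA in Escherichia coli cells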
Outcome measure: recombinant barcode read abundance (log10)

{"Seq text": "AATATAGCTTGGGTTCTAACCTGTTGCTA (site AATATAGCTTA)", "Reported result": 0.0685}
{"Seq text": "CCAAGGGCTTGGGTTCTAACCTGTTGCGG (site CCAAGGGCTCC)", "Reported result": 2.52}
{"Seq text": "CCAAGTACTTGGGTTCTAACCTGTTGCTT (site CCACGAACTAA)", "Reported result": 0.106}
{"Seq text": "CACATGGCTTGGGTTCTAACCTGTTGCCG (site CACAGGGCTCC)", "Reported result": 0.159}
{"Seq text": "GAGTAGCCTTGGGTTCTAACCTGTTGCGG (site GAGTGGCCTCC)", "Reported result": 0.3}
{"Seq text": "GTCGCGTCTTGGGTTCTAACCTGTTGCCT (site GTCGCGTCTAG)", "Reported result": 0.328}
{"Seq text": "CACTTGGCTTGGGTTCTAACCTGTTGCCT (site CACTTGGCTAG)", "Reported result": 0.134}
{"Seq text": "GTCTTACCTTGGGTTCTAACCTGTTGCTT (site TTCATACCTAA)", "Reported result": 0.128}
{"Seq text": "TAGAATCCTTGGGTTCTAACCTGTTGCAA (site TAGAATCCTTT)", "Reported result": 0.147}
{"Seq text": "TCCCATGCTTGGGTTCTAACCTGTTGCCT (site TCCCATTCTAG)", "Reported result": 0.0569}
{"Seq text": "AACTATCCTTGGGTTCTAACCTGTTGCAT (site AACTGTCCTAT)", "Reported result": 0.00638}
{"Seq text": "GACTATGCTTGGGTTCTAACCTGTTGCCT (site GGCTATGCTAG)", "Reported result": 0.0633}
{"Seq text": "GGTTGACCTTGGGTTCTAACCTGTTGCGG (site GGTTGTCCTCC)", "Reported result": 0.0522}
{"Seq text": "TGAGGGGCTTGGGTTCTAACCTGTTGCCT (site TGAGCGGCTAG)", "Reported result": 0.242}
{"Seq text": "AAGGCCGCTTGGGTTCTAACCTGTTGCCT (site AAGGGCGCTAG)", "Reported result": 0.161}
{"Seq text": "GTAGTATCTTGGGTTCTAACCTGTTGCCT (site GTAGTAACTAG)", "Reported result": 0.0297}
{"Seq text": "CTGGTATCTTGGGTTCTAACCTGTTGCTT (site GGCTACCCTTT)", "Reported result": 0.0591}
{"Seq text": "CAGCTACCTTGGGTTCTAACCTGTTGCCT (site CAGCTACCTAG)", "Reported result": 1.73}
{"Seq text": "GTATGCCCTTGGGTTCTAACCTGTTGCTA (site GTATCCACTTA)", "Reported result": 0.273}
{"Seq text": "CGTATGACTTGGGTTCTAACCTGTTGCCT (site CGTATGACTAG)", "Reported result": 0.0395}
{"Seq text": "TGCCAGACTTGGGTTCTAACCTGTTGCAT (site TGCCAGACTAT)", "Reported result": 1.12}
{"Seq text": "GCAAATCCTTGGGTTCTAACCTGTTGCCT (site GCACATCCTAC)", "Reported result": 0.108}
{"Seq text": "AGTCTGCCTTGGGTTCTAACCTGTTGCCT (site AGTCTGCCTAG)", "Reported result": 0.427}
{"Seq text": "GTATATACTTGGGTTCTAACCTGTTGCTT (site ACGGGGCCTCG)", "Reported result": 0.0368}
{"Seq text": "AACAATGCTTGGGTTCTAACCTGTTGCCT (site AACAGTGCTAG)", "Reported result": 0.207}
{"Seq text": "TATTCTACTTGGGTTCTAACCTGTTGCGT (site TATTCTACTTC)", "Reported result": 0.0549}
{"Seq text": "TCCTGTGCTTGGGTTCTAACCTGTTGCCT (site TCCTGTGCTAG)", "Reported result": 0.254}
{"Seq text": "ACGACTTCTTGGGTTCTAACCTGTTGCCT (site ACGACTACTAG)", "Reported result": 0.0265}
{"Seq text": "TGCCCGCCTTGGGTTCTAACCTGTTGCCT (site GGCCCGCCTAG)", "Reported result": 0.757}
{"Seq text": "CTCCATTCTTGGGTTCTAACCTGTTGCCT (site CTCCATTCTAG)", "Reported result": 0.739}
{"Seq text": "TCGGAGTCTTGGGTTCTAACCTGTTGCTG (site TCGGAGTCTCA)", "Reported result": 0.963}
{"Seq text": "TGTGCGGCTTGGGTTCTAACCTGTTGCCT (site TGTGCGGCTAG)", "Reported result": 0.152}
{"Seq text": "GATGGCCCTTGGGTTCTAACCTGTTGCTT (site GACGGACCTAA)", "Reported result": 0.101}
{"Seq text": "CGAGACGCTTGGGTTCTAACCTGTTGCCT (site CGAGACGCTAG)", "Reported result": 1.87}
{"Seq text": "GTCGTAGCTTGGGTTCTAACCTGTTGCCT (site GACGTAGCTAG)", "Reported result": 0.464}
{"Seq text": "TCTCGGACTTGGGTTCTAACCTGTTGCCT (site TCCCGGACTAG)", "Reported result": 0.0144}
{"Seq text": "GTTTGGTCTTGGGTTCTAACCTGTTGCCT (site GTTTGGTCTAG)", "Reported result": 0.405}
{"Seq text": "TCAAGCCCTTGGGTTCTAACCTGTTGCAG (site TCAAGCCCTCT)", "Reported result": 0.927}
{"Seq text": "AAAGGTTCTTGGGTTCTAACCTGTTGCCT (site ACAGGTTCTAG)", "Reported result": 0.0935}
{"Seq text": "TTGGTACCTTGGGTTCTAACCTGTTGCCT (site TTGGTCCCTAG)", "Reported result": 0.204}
{"Seq text": "TGGACGACTTGGGTTCTAACCTGTTGCTT (site GATCGAGCTCT)", "Reported result": 0.0173}
{"Seq text": "TGAGTTCCTTGGGTTCTAACCTGTTGCTT (site TGAGTCCCTAA)", "Reported result": 0.0401}
